Values compiled from patent US20030215462A1.

test target: UGT1A1 (Homo sapiens, UniProt P22309)
Sequence (P22309 26-533): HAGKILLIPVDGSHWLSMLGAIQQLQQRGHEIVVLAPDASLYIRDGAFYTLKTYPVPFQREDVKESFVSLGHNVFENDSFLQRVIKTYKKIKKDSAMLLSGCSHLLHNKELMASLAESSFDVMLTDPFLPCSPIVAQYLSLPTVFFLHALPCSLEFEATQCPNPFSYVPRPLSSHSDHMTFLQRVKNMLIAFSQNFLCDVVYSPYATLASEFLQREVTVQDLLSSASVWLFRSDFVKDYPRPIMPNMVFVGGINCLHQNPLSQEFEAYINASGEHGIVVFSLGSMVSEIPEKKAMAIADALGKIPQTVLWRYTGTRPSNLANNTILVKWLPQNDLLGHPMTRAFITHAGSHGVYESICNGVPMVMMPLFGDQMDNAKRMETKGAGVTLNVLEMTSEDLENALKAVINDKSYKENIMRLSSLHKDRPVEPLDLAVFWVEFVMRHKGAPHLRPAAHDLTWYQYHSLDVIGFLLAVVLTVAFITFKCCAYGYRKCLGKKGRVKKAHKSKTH
protocol summary: Inhibition of raloxifene glucuronidation by recombinant UGT1A1 Supersomes
condition info: human, recombinant UGT1A1 Supersomes, pH 7.5, probe raloxifene 50 μM (formation of glucuronide G2)
quantity measured: activity at 15 min
I'd appreciate it if you included the unit after the number.

CCCCCCCCOC(=O)c1cc(O)c(O)c(O)c1 [Octyl gallate]
75%

Data request: What does the record list as activity at 15 min for CC/C(=C(/CC)c1ccc(O)cc1)c1ccc(O)cc1 [Diethylstilbestrol, reference compound] ?
Data returned: 72%

Data request: Could you tell me which activity at 15 min is on file for O=C(O[C@@H]1Cc2c(O)cc(O)cc2O[C@H]1c1cc(O)c(O)c(O)c1)c1cc(O)c(O)c(O)c1 [Gallocatechin gallate] ?
Data returned: 76%

Data request: Fill in: activity at 15 min of O=C(OC[C@H]1O[C@@H](OC(=O)c2cc(O)c(O)c(OC(=O)c3cc(O)c(O)c(O)c3)c2)[C@H](OC(=O)c2cc(O)c(O)c(OC(=O)c3cc(O)c(O)c(O)c3)c2)[C@@H](OC(=O)c2cc(O)c(O)c(OC(=O)c3cc(O)c(O)c(O)c3)c2)[C@@H]1OC(=O)c1cc(O)c(O)c(OC(=O)c2cc(O)c(O)c(O)c2)c1)c1cc(O)c(O)c(OC(=O)c2cc(O)c(O)c(O)c2)c1 is ___
Data returned: 17%

====

test target: UGT1A9 (Homo sapiens)
Sequence (O60656 26-530): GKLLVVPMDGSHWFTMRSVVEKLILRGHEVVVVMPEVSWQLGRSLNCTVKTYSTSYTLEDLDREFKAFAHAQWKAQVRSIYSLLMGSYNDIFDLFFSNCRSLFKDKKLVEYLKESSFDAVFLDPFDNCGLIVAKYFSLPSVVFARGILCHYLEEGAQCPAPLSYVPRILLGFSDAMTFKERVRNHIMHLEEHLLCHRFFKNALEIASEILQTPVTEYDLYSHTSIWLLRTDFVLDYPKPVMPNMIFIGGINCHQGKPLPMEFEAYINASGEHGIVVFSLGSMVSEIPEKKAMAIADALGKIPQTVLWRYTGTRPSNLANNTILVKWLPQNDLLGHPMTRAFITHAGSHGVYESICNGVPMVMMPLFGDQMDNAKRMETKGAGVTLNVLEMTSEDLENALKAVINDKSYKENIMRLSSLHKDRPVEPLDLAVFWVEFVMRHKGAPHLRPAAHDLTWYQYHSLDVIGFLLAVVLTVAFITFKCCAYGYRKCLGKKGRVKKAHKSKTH
protocol summary: in vitro
condition info: pH 7.5, % of control metabolism, raloxifene G1
quantity measured: activity at 15 min, 50 µM (%)
Write the number in % without appending the unit.

Reference set, count: 5
CCCOC(=O)c1cc(O)c(O)c(O)c1 [Propyl gallate]
48
COc1cc(C2Oc3cc([C@H]4Oc5cc(O)cc(O)c5C(=O)[C@@H]4O)ccc3OC2CO)ccc1O (stereo partly drawn) [Silibinin]
59
O=C(O[C@@H]1Cc2c(O)cc(O)cc2O[C@@H]1c1ccc(O)c(O)c1)c1cc(O)c(O)c(O)c1 [Epicatechin gallate]
48
O=C(O)Cc1ccccc1Nc1c(Cl)cccc1Cl [Diclofenac, reference compound]
74
C=CCc1ccc(O)c(OC)c1 [Eugenol]
32

Now look at this entry.
Data request: Request the reported activity at 15 min, 50 µM associated with O=C(O)c1cc(-c2ccc(F)cc2F)ccc1O [Diflunisal, reference compound]
Data returned: 50
